# method_notes: physchem
# condition_info: water, solubility in water
measured_attribute: solubility

Looking up CN(C)C(=O)c1cc2cnc(Nc3ccc(N4CCNCC4)cn3)nc2n1C1CCCC1.O=C(O)CCC(=O)O [non-hydrate form] , I found its solubility recorded as ~30 mg/mL

# credit: patent US9868739B2
